Source: patent US11535650

Catalogue of Avg. IC50, human hemolysis assay (complete human sera) values
target: human C5 protein (human, UniProt P01031 19-673; P01031 678-1676); assay: cell-based or functional assay
Positions of bridges follow the written chain, without caps; N, C: chain ends. Non-standard residues stand in square brackets, D forms with d. Primed or numbered codes have the meaning given here. No end group written: not given here. mXylyl(5) = bridging moiety between the two residues (meta-xylyl); mXylyl″ = bridging moiety between the two marked residues; Trp(5-F) = N[C@@H](Cc1c[nH]c2ccc(F)cc12)C(=O)O; Trp(7-aza) = N[C@@H](Cc1c[nH]c2ncccc12)C(=O)O; mXylyl(4) = bridging moiety between residues; dChg = N[C@@H](C(=O)O)C1CCCCC1; dPhg = N[C@@H](C(=O)O)c1ccccc1; Phg = N[C@H](C(=O)O)c1ccccc1; Tle = CC(C)(C)[C@H](N)C(=O)O; NMeS = CN[C@@H](CO)C(=O)O; Nva = CCC[C@H](N)C(=O)O; Sar = CNCC(=O)O
Property Label: Avg. IC50, human hemolysis assay (complete human sera)

{"Binder": "Ac-[Nva]CY[Trp(7-aza)][Sar][Tle][Nva][Trp(7-aza)]EYP[Phg]P-NH2 (SMILES CCC[C@H](NC(C)=O)C(=O)N[C@@H](CS)C(=O)N[C@@H](Cc1ccc(O)cc1)C(=O)N[C@@H](Cc1c[nH]c2ncccc12)C(=O)N(C)CC(=O)N[C@H](C(=O)N[C@@H](CCC)C(=O)N[C@@H](Cc1c[nH]c2ncccc12)C(=O)N[C@@H](CCC(=O)O)C(=O)N[C@@H](Cc1ccc(O)cc1)C(=O)N1CCC[C@H]1C(=O)N[C@H](C(=O)N1CCC[C@H]1C(N)=O)c1ccccc1)C(C)(C)C) [R3005]", "Value Measured": "0.0667 µM"}
{"Binder": "Ac-CAERFCD[Tle]Y[Trp(7-aza)]EYP[dPhg]K-NH2 (linker 1-6 via mXylyl″) [R3162]", "Value Measured": "0.0165 µM"}
{"Binder": "Ac-[Nva]C[Phg]T[Trp(7-aza)]EY[NMeS]HC[Nva]P[Nva]-NH2 (cysteine pairing not given here) [R3022]", "Value Measured": "> 10.2 µM"}
{"Binder": "Ac-YENY[dW]EYP[Phg][Nva]-NH2 (SMILES CCC[C@H](NC(=O)[C@@H](NC(=O)[C@@H]1CCCN1C(=O)[C@H](Cc1ccc(O)cc1)NC(=O)[C@H](CCC(=O)O)NC(=O)[C@@H](Cc1c[nH]c2ccccc12)NC(=O)[C@H](Cc1ccc(O)cc1)NC(=O)[C@H](CC(N)=O)NC(=O)[C@H](CCC(=O)O)NC(=O)[C@H](Cc1ccc(O)cc1)NC(C)=O)c1ccccc1)C(N)=O) [R3119]", "Value Measured": "> 100 µM"}
{"Binder": "Ac-[Nva]C[dChg]T[Trp(7-aza)]EY[NMeS]AC[Nva]-NH2 (linker 2-10 via mXylyl(4)) [R3093]", "Value Measured": "> 100 µM"}
{"Binder": "MCVERFCDV-NH2 (linker 2-7 via mXylyl(5)) [R3046]", "Value Measured": "> 100 µM"}
{"Binder": "Ac-[Nva]C[Phg]T[Trp(5-F)]EY[NMeS]AC[Nva]-NH2 (linker 2-10 via mXylyl(5)) [R3088]", "Value Measured": "> 100 µM"}
{"Binder": "Ac-CVERFCVYWEF-NH2 (linker 1-6 via mXylyl(4)) [R3124]", "Value Measured": "> 100 µM"}
